- TEST_SYSTEM: Human FXR (NR1H4) (Homo sapiens (Human))
- METHOD: Human FXR (NR1H4) Assay (Gal4 promoter driven luciferase reporter transactivation in CHO cells)
- Assay type: cell-based
- PARTICULARS: FXR agonistic potency range; CHO reporter cells expressing human NR1H4, 22 hours incubation; read-out: EC50
pEC50: −log10 of the molar value.
PARAMETER: pEC50

Below, 5 compounds whose answers are already recorded.
CC[C@@H]1C2C[C@H](O)CCC2(C)[C@H]2CCC3(C)C([C@H](C)CCC(=O)NS(=O)(=O)c4ccc(OC)c(F)c4)CC[C@H]3[C@@H]2[C@@H]1O (stereo partly drawn) [Example 476]; > 7.00
CC[C@H]1[C@@H](O)[C@@H]2[C@H](CC[C@]3(C)[C@@H]([C@H](C)CCC(=O)NS(=O)(=O)c4ccccc4)CC[C@@H]23)[C@@]2(C)CC[C@@H](O)C[C@@H]12 [Example 18]; > 7.00
CC[C@@H]1C2C[C@H](O)CCC2(C)[C@H]2CCC3(C)C([C@H](C)CCC(=O)NS(=O)(=O)c4cccc5ccccc45)CC[C@H]3[C@@H]2[C@@H]1O (stereo partly drawn) [Example 483]; > 7.00
CC[C@@H]1C2C[C@H](O)CCC2(C)[C@H]2CCC3(C)C([C@H](C)CCC(=O)NS(=O)(=O)c4cccc(Cl)c4)CC[C@H]3[C@@H]2[C@@H]1O (stereo partly drawn) [Example 479]; > 7.00
CC[C@@H]1C2C[C@H](O)CCC2(C)[C@H]2CCC3(C)C([C@H](C)CCC(=O)NS(=O)(=O)C4CCCCC4)CC[C@H]3[C@@H]2[C@@H]1O (stereo partly drawn) [Example 468]; > 7.00

response.value for CCC1C(O)C2C3CCC(C(C)CCC(=O)NS(=O)(=O)F)C3(C)CCC2C2(C)CCC(O)CC12 (stereo not drawn) [Example 25] (field: pEC50) = 5.00 to 6.00

# pEC50 of CCC1C(O)C2C3CCC(C(C)CCC(=O)NS(=O)(=O)C(C)C)C3(C)CCC2C2(C)CCC(O)CC12 (stereo not drawn) [Example 3] = 6.00 to 7.00

---

- TEST_SYSTEM: Human FXR (NR1H4) (Homo sapiens (Human), UniProt Q96RI1)
- Sequence (Q96RI1 whole entry, the tested form may be a part): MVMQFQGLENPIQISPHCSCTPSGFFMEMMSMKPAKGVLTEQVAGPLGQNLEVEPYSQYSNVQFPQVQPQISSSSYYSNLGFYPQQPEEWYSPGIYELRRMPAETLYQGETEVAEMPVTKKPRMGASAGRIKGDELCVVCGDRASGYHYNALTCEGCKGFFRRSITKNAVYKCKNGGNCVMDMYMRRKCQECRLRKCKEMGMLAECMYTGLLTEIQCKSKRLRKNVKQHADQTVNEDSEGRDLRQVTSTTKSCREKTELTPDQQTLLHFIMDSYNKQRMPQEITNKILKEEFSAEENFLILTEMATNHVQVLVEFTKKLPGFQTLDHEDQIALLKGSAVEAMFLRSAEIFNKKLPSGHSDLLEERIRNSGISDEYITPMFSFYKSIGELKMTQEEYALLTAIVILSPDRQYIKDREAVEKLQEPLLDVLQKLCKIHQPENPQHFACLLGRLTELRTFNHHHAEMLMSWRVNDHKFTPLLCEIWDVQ
- METHOD: Human FXR (NR1H4) Assay (Gal4 promoter driven luciferase reporter transactivation in CHO cells)
- Type: cell-based
- PARTICULARS: CHO; read-out: Efficacy (%)
Each entry below carries its reported Emax.
The reply should be a number in %, with the unit left off.

Known Emax results, listed for orientation:
CC[C@@H]1C2C[C@H](O)CCC2(C)[C@H]2CCC3(C)C([C@H](C)CCC(=O)NS(=O)(=O)c4cc(F)cc(F)c4)CC[C@H]3[C@@H]2[C@@H]1O (some centres unmarked) [Example 464]; 293
CC[C@@H]1C2C[C@H](O)CCC2(C)[C@H]2CCC3(C)C([C@H](C)CCC(=O)NS(=O)(=O)c4ccc([N+](=O)[O-])cc4)CC[C@H]3[C@@H]2[C@@H]1O (some centres unmarked) [Example 454]; 353
CC[C@@H]1C2C[C@H](O)CCC2(C)[C@H]2CCC3(C)C([C@H](C)CCC(=O)NS(=O)(=O)c4ccncc4)CC[C@H]3[C@@H]2[C@@H]1O (some centres unmarked) [Example 463]; 251
CC[C@@H]1C2C[C@H](O)CCC2(C)[C@H]2CCC3(C)C([C@H](C)CCC(=O)NS(=O)(=O)c4ccc(C#N)cc4)CC[C@H]3[C@@H]2[C@@H]1O (some centres unmarked) [Example 461]; 283

// below: Emax requested for another molecule
The reported value for CC[C@@H]1C2C[C@H](O)CCC2(C)[C@H]2CCC3(C)C([C@H](C)CCC(=O)NS(=O)(=O)c4cccc5ncccc45)CC[C@H]3[C@@H]2[C@@H]1O (some centres unmarked) [Example 470] in terms of Emax is 439

---

- TEST_SYSTEM: Human FXR (NR1H4) (Homo sapiens (Human))
- METHOD: Human FXR (NR1H4) Assay (Gal4 promoter driven luciferase reporter transactivation in CHO cells)
- Format: cell-based
- PARTICULARS: CHO; read-out: Efficacy (%)
Catalogue of Emax readings, one per entry.
Dear colleague, please return just the value in %, with no unit written.

CC[C@H]1[C@@H](O)[C@@H]2[C@H](CC[C@]3(C)[C@@H]([C@H](C)CCCC(=O)NS(=O)(=O)C4CC4)CC[C@@H]23)[C@@]2(C)CC[C@@H](O)C[C@@H]12; 223
CC[C@@H]1C2C[C@H](O)CCC2(C)[C@H]2CCC3(C)C([C@H](C)CCC(=O)NS(=O)(=O)c4ccc(F)cc4)CC[C@H]3[C@@H]2[C@@H]1O (stereo partly shown); 240
CC[C@@H]1C2C[C@H](O)CCC2(C)[C@H]2CCC3(C)C([C@H](C)CCC(=O)NS(=O)(=O)c4ccccc4C(F)(F)F)CC[C@H]3[C@@H]2[C@@H]1O (stereo partly shown); 310
CC[C@@H]1C2C[C@H](O)CCC2(C)[C@H]2CCC3(C)C([C@H](C)CCC(=O)NS(=O)(=O)c4cccs4)CC[C@H]3[C@@H]2[C@@H]1O (stereo partly shown); 315

Looking up CC[C@@H]1C2C[C@H](O)CCC2(C)[C@H]2CCC3(C)C([C@H](C)CCC(=O)NS(=O)(=O)c4ccccc4Cl)CC[C@H]3[C@@H]2[C@@H]1O (stereo partly shown) , I found its Emax recorded as 274

# Emax (compound: `CC[C@H]1[C@@H](O)[C@@H]2[C@H](CC[C@]3(C)[C@@H]([C@H](C)C[C@@H](C)C(=O)NS(=O)(=O)C4CC4)CC[C@@H]23)[C@@]2(C)CC[C@@H](O)C[C@@H]12` ) is 387

Entry `CC[C@H]1[C@@H](O)[C@@H]2[C@H](CC[C@]3(C)[C@@H]([C@H](C)CCC(=O)N(C)S(=O)(=O)c4ccccc4)CC[C@@H]23)[C@@]2(C)CC[C@@H](O)C[C@@H]12` — recorded Emax = 231

Lab note: measured Emax of `CC[C@H]1[C@@H](O)[C@@H]2[C@H](CC[C@]3(C)[C@@H]([C@H](C)CCCC(=O)NS(=O)(=O)C4(C)CC4)CC[C@@H]23)[C@@]2(C)CC[C@@H](O)C[C@@H]12` was 226

Lab note: measured Emax of CC[C@@H]1C2C[C@H](O)CCC2(C)[C@H]2CCC3(C)C([C@H](C)CCC(=O)NS(=O)(=O)c4cccnc4)CC[C@H]3[C@@H]2[C@@H]1O (stereo partly shown) was 258

// field: Emax; key: CC[C@@H]1C2C[C@H](O)CCC2(C)[C@H]2CCC3(C)C([C@H](C)CCC(=O)NS(=O)(=O)c4ccc(OC)c(OC)c4)CC[C@H]3[C@@H]2[C@@H]1O (stereo partly shown) ; value = 589

---

- TEST_SYSTEM: Human FXR (NR1H4) (Homo sapiens (Human))
- METHOD: Human FXR (NR1H4) Assay (Gal4 promoter driven luciferase reporter transactivation in CHO cells)
- Type: cell-based
- PARTICULARS: FXR agonistic potency range; CHO reporter cells expressing human NR1H4, 22 hours incubation; read-out: EC50
pEC50: −log10 of the molar value.
List of pEC50 values.

Use the examples below as a reference point.
CC[C@@H]1C2C[C@H](O)CCC2(C)[C@H]2CCC3(C)C([C@H](C)CCC(=O)NS(=O)(=O)c4ccc(C(F)(F)F)cc4)CC[C@H]3[C@@H]2[C@@H]1O (stereo partly drawn) [Example 475]; > 7.00
CC[C@@H]1C2C[C@H](O)CCC2(C)[C@H]2CCC3(C)C([C@H](C)CCC(=O)NS(=O)(=O)c4cccc(OC)c4)CC[C@H]3[C@@H]2[C@@H]1O (stereo partly drawn) [Example 477]; > 7.00
CCC1C(O)C2C3CCC(C(C)CCC(=O)NS(=O)(=O)Cc4ccccc4)C3(C)CCC2C2(C)CCC(O)CC12 (stereo not drawn) [Example 7]; 5.00 to 6.00

pEC50 recorded for this compound, CC[C@@H]1C2C[C@H](O)CCC2(C)[C@H]2CCC3(C)C([C@H](C)CCC(=O)NS(=O)(=O)c4cccc(OC(F)(F)F)c4)CC[C@H]3[C@@H]2[C@@H]1O (stereo partly drawn) [Example 471] , is > 7.00

// CCCCS(=O)(=O)NC(=O)CCC(C)C1CCC2C3C(O)C(CC)C4CC(O)CCC4(C)C3CCC12C (stereo not drawn) [Example 4] : pEC50 value = 6.00 to 7.00

According to the records, this compound CC[C@@H]1C2C[C@H](O)CCC2(C)[C@H]2CCC3(C)C([C@H](C)CCC(=O)NS(=O)(=O)c4ccc(C(C)(C)C)cc4)CC[C@H]3[C@@H]2[C@@H]1O (stereo partly drawn) [Example 484] displays pEC50 of > 7.00

Field pEC50 (entry CC[C@@H]1C2C[C@H](O)CCC2(C)[C@H]2CCC3(C)C([C@H](C)CCC(=O)NS(=O)(=O)c4ccc(C)c(F)c4)CC[C@H]3[C@@H]2[C@@H]1O (stereo partly drawn) [Example 465] ) reads > 7.00

Per the record, CCCS(=O)(=O)NC(=O)CCC(C)C1CCC2C3C(O)C(CC)C4CC(O)CCC4(C)C3CCC12C (stereo not drawn) [Example 6] has pEC50 of 6.00 to 7.00

Item: C=CCS(=O)(=O)NC(=O)CCC(C)C1CCC2C3C(O)C(CC)C4CC(O)CCC4(C)C3CCC12C (stereo not drawn) [Example 9] | pEC50: 6.00 to 7.00

Per the record, CC[C@@H]1C2C[C@H](O)CCC2(C)[C@H]2CCC3(C)C([C@H](C)CCC(=O)NS(=O)(=O)c4cccc(C(F)(F)F)c4)CC[C@H]3[C@@H]2[C@@H]1O (stereo partly drawn) [Example 460] has pEC50 of > 7.00

Form: compound = CC[C@@H]1C2C[C@H](O)CCC2(C)[C@H]2CCC3(C)C([C@H](C)CCC(=O)NS(=O)(=O)C4CCCC4)CC[C@H]3[C@@H]2[C@@H]1O (stereo partly drawn) [Example 482] ; pEC50 = > 7.00

Notebook: CCC1C(O)C2C3CCC(C(C)CCC(=O)NS(=O)(=O)c4ccccc4C)C3(C)CCC2C2(C)CCC(O)CC12 (stereo not drawn) [Example 20] , pEC50 read as 6.00 to 7.00

Form field pEC50, entry CC[C@H]1[C@@H](O)[C@@H]2[C@H](CC[C@]3(C)[C@@H]([C@H](C)CCCC(=O)NS(=O)(=O)c4ccc(C(C)(C)C)cc4)CC[C@@H]23)[C@@]2(C)CC[C@@H](O)C[C@@H]12 [Example 491] : > 7.00

For this compound ( CC[C@@H]1C2C[C@H](O)CCC2(C)[C@H]2CCC3(C)C([C@H](C)CCC(=O)NS(=O)(=O)c4ccc5ccccc5c4)CC[C@H]3[C@@H]2[C@@H]1O (stereo partly drawn) [Example 472] ), measured pEC50 is > 7.00

Measured pEC50 of CCC1C(O)C2C3CCC(C(C)CCC(=O)NS(=O)(=O)C(C)(C)C)C3(C)CCC2C2(C)CCC(O)CC12 (stereo not drawn) [Example 5] : > 7.00

Field pEC50 (entry CCC1C(O)C2C3CCC(C(C)CCC(=O)NS(=O)(=O)C4(C)CC4)C3(C)CCC2C2(C)CCC(O)CC12 (stereo not drawn) [Example 12] ) reads 6.00 to 7.00

get_value(item= CCC1C(O)C2C3CCC(C(C)CCC(=O)NS(=O)(=O)C(F)(F)F)C3(C)CCC2C2(C)CCC(O)CC12 (stereo not drawn) [Example 10] , readout=pEC50) returns 5.00 to 6.00

The compound identified as CC[C@H]1[C@@H](O)[C@@H]2[C@H](CC[C@]3(C)[C@@H]([C@H](C)C[C@@H](C)C(=O)NS(=O)(=O)c4ccc(OC(F)(F)F)cc4)CC[C@@H]23)[C@@]2(C)CC[C@@H](O)C[C@@H]12 [Example 487] registered its pEC50 at > 7.00

Item: CC[C@@H]1C2C[C@H](O)CCC2(C)[C@H]2CCC3(C)C([C@H](C)CCC(=O)NS(=O)(=O)c4cccc(C)c4)CC[C@H]3[C@@H]2[C@@H]1O (stereo partly drawn) [Example 457] | pEC50: > 7.00

Query CCC1C(O)C2C3CCC(C(C)CCC(=O)NS(=O)(=O)c4ccccc4F)C3(C)CCC2C2(C)CCC(O)CC12 (stereo not drawn) [Example 22] yields pEC50 of 6.00 to 7.00

Reported pEC50 of CCC1C(O)C2C3CCC(C(C)CCC(=O)NS(=O)(=O)CC)C3(C)CCC2C2(C)CCC(O)CC12 (stereo not drawn) [Example 2] : 6.00 to 7.00
